Listed here: items and their measured residual activity.
biological target: EPHA4 (human) (UniProt P54764); assay: radiometric filter-binding kinase assay; conditions: compound 0.01 µM
Sequence (P54764 whole entry, looked up): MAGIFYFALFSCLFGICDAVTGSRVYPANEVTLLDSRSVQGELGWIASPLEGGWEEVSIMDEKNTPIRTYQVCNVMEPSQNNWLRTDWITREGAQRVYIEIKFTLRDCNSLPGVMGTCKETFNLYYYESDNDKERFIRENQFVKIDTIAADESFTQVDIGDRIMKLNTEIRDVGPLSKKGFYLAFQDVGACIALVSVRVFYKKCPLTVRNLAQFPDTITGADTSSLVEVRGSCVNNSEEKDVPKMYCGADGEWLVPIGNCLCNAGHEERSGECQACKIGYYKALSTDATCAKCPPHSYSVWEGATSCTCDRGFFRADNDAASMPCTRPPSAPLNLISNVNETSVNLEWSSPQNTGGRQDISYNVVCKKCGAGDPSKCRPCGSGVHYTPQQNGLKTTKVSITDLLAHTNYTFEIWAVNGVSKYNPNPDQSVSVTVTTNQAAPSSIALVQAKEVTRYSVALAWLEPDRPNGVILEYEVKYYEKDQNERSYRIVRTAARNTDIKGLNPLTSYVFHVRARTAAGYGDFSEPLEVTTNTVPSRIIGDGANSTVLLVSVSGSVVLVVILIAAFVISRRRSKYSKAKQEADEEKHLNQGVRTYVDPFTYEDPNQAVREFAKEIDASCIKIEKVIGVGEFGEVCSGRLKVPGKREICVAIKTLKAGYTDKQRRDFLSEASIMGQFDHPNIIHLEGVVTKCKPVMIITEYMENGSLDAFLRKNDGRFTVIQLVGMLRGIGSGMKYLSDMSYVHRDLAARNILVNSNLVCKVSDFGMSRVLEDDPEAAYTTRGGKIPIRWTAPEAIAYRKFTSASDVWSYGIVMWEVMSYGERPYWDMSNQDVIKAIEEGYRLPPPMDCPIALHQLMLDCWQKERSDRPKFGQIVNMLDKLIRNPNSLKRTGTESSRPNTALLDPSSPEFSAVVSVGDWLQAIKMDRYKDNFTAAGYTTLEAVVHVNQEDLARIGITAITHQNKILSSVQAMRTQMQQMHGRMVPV
Don't forget the unit after the number, please.

Answered examples (3):
{"compound": "COc1cc(O)c2c(c1)[C@H]1OC1C[C@H](O)[C@H](O)C(=O)/C=C\\C[C@H](C)OC2=O (some centres undefined)", "target_system": "EPHA4 (human) (UniProt P54764)", "residual activity": "109%"}
{"compound": "O=C(Nc1nc2cc(C(F)(F)F)cc(NC3CC3)n2n1)c1cccnc1", "target_system": "EPHA4 (human) (UniProt P54764)", "residual activity": "101%"}
{"compound": "COc1ccc(N(C(=O)Nc2c(C)cccc2C)c2cc(Nc3ccc(N4CCN(C)CC4)cc3)ncn2)c(OC)c1", "target_system": "EPHA4 (human) (UniProt P54764)", "residual activity": "71%"}

Can you look up the measured residual activity of CNC(=O)C1[C@H]2O[C@@](C)([C@@H]1N)n1c3ccccc3c3c4c(c5c6ccccc6n2c5c31)C(=O)NC4 (some centres undefined) for me?
95%
